Test system: AR(h)
Experiment: In vitro CEREP profiling, AR(h) (agonist radioligand)
Assay type: binding, human
Details: test compound concentration 10 uM
From the text: Supplement media-1.zip/Safety_Panel_Profile.csv, table | column: perc_inhibition
Entries and their perc_inhibition (% inhibition of the binding of a ligand specific for each target)
Quantity: perc_inhibition (% inhibition of the binding of a ligand specific for each target) (%)

Molecule: COc1ccc([C@H](Cc2nnn[nH]2)NC(=O)c2ncnc3[nH]ccc23)cc1
Data Value: -2
//
Molecule: CNCc1cc(-c2cc3c(N[C@@H](c4ccc5c(c4)S(=O)(=O)CCC5)C(C)C)ncnc3[nH]2)co1
Data Value: 10
//
Molecule: CC(C)[C@@H](Nc1ncnc2[nH]c(-c3cnn(C)c3C#N)cc12)c1ccc2c(n1)OCCO2
Data Value: 12
//
Molecule: Cc1nn(C)cc1-c1cc2c(NC(c3ccc4c(c3)S(=O)(=O)CCC4)C(C)C)ncnc2[nH]1 (stereo not drawn)
Data Value: 6
//
Molecule: CC(C)[C@H](Nc1ncnc2[nH]c(-c3cnn(C)c3C#N)cc12)c1ccc2c(n1)OCCO2
Data Value: -3
//
Molecule: CC(C)[C@H](Nc1ncnc2[nH]ccc12)c1ccc2c(c1)S(=O)(=O)CCC2
Data Value: 0
//
Molecule: C[C@H](C(=O)O)[C@@H](NC(=O)c1ncnc2[nH]ccc12)c1ccc(Br)cc1
Data Value: 12
//
Molecule: CC(C)C(Nc1ncnc2[nH]c(C(=O)NC3CCN(C)C3)cc12)c1ccc2c(c1)S(=O)(=O)CCC2 (stereo not drawn)
Data Value: -5
//
Molecule: Cn1ncc(-c2cc3c(N[C@@H](c4ccc5c(n4)OCCO5)C(C)(C)C)ncnc3[nH]2)c1C#N
Data Value: 5
